Listed here: items and their measured bioavailability.
assay: Oral bioavailability in Sprague-Dawley rat at 10 mg/kg; assay type: ADME, organism-based; conditions: in vivo

| SMILES_STR | bioavailability, % |
| --- | --- |
| CCOC(=O)C1=C(Nc2ccc3ccccc3c2)OCC1=O | 40 |
| CCOC(=O)C1=C(Nc2ccc3ccccc3c2)SCC1=O | 3.02 |

* * *

Target: Dihydroorotate dehydrogenase (Plasmodium falciparum, UniProt Q54A96)
Sequence (Q54A96 whole entry): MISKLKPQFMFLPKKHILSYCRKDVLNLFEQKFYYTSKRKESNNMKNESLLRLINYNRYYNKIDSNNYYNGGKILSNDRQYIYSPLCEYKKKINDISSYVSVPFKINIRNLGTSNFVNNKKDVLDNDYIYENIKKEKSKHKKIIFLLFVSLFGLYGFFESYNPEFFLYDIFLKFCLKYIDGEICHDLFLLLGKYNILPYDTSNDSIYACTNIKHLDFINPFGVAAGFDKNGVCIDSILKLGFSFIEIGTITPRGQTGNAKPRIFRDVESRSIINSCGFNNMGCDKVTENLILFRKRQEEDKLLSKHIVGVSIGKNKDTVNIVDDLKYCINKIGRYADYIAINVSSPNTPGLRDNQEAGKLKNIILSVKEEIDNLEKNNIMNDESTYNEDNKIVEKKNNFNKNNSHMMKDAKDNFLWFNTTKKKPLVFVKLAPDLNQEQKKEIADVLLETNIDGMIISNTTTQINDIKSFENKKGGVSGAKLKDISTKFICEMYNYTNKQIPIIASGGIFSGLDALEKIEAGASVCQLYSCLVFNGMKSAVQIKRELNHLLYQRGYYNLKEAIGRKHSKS
Test: Inhibition of Plasmodium falciparum DHODH (Phe158 to Ser569) expressed in Escherichia coli BL21 using dihydroorotate as substrate measured every 30 secs for 6 mins by DCIP dye-based assay
Listed here: items and their measured IC50.

| SMILES_STR | SYSTEM | UNIT_SPEC | OP | IC50 |
| --- | --- | --- | --- | --- |
| Cc1ccc(NC2=C(C(=O)O)C(=O)CS2)cc1C | Dihydroorotate dehydrogenase (Plasmodium falciparum, UniProt Q54A96) | nM | > | 50000 |
| CCNC(=O)C1=C(Nc2ccc(C)c(C)c2)SCC1=O | Dihydroorotate dehydrogenase (Plasmodium falciparum, UniProt Q54A96) | nM | = | 39500 |
| CCOC(=O)C1=C(Nc2cc(Cl)cc(Cl)c2)SCC1=O | Dihydroorotate dehydrogenase (Plasmodium falciparum, UniProt Q54A96) | nM | = | 1190 |
| CCOC(=O)C1=C(Nc2ccc3c(c2)CCC3)SCC1=O | Dihydroorotate dehydrogenase (Plasmodium falciparum, UniProt Q54A96) | nM | = | 851 |
| CCOC(=O)C1=C(Nc2cnc3ccccc3c2)SCC1=O | Dihydroorotate dehydrogenase (Plasmodium falciparum, UniProt Q54A96) | nM | = | 351 |
| CCOC(=O)C1=C(Nc2cnc3ccccc3c2)OCC1=O | Dihydroorotate dehydrogenase (Plasmodium falciparum, UniProt Q54A96) | nM | = | 79 |
| CCCCNC(=O)C1=C(Nc2ccc3ccccc3c2)SCC1=O | Dihydroorotate dehydrogenase (Plasmodium falciparum, UniProt Q54A96) | nM | > | 50000 |
| O=C(O)C1=C(Nc2ccc3ccccc3c2)SCC1=O | Dihydroorotate dehydrogenase (Plasmodium falciparum, UniProt Q54A96) | nM | = | 1240 |
| Cc1ccc(NC2=C(C(=O)NCC3CC3)C(=O)CS2)cc1C | Dihydroorotate dehydrogenase (Plasmodium falciparum, UniProt Q54A96) | nM | = | 3660 |
| CCOC(=O)C1=C(Nc2ccc(S(F)(F)(F)(F)F)cc2)OCC1=O | Dihydroorotate dehydrogenase (Plasmodium falciparum, UniProt Q54A96) | nM | = | 168 |
| COC(=O)C1=C(Nc2ccc3ccccc3c2)SCC1=O | Dihydroorotate dehydrogenase (Plasmodium falciparum, UniProt Q54A96) | nM | = | 33 |
| CCNC(=O)C1=C(Nc2ccc3ccccc3c2)SCC1=O | Dihydroorotate dehydrogenase (Plasmodium falciparum, UniProt Q54A96) | nM | = | 12100 |
